ASSAY NOTES: Aqueous solubility of the compound
SETUP CONDITIONS: aqueous (not further specified)
As shown below, each of these molecules has a reported solubility value.
The figure you give is taken to be in mg/mL; do not add the unit.

Answered examples (2):
MOLECULE	solubility / mg/mL
N#Cc1ccc(-c2ccc3c(c2)OC[C@H]2[C@H](COP(=O)([O-])[O-])OC(=O)N32)cn1.[Na+].[Na+]	15
O=C1OC(COP(=O)([O-])[O-])CN1c1ccc(-c2ccc3c(c2)OC[C@H]2[C@H](CO)OC(=O)N32)cn1.[Na+].[Na+] (stereo partly drawn)	534

Q) Given the entry CN1C[C@@H](c2ccc(-c3ccc4c(c3)OC[C@H]3[C@H](COP(=O)([O-])[O-])OC(=O)N43)cn2)OC1=O.[Na+].[Na+] , report its measured solubility.
A) 227
